The measured values listed here are drawn from patent US20240270751A1.

Below are IC50 values recorded for DGKα (Homo sapiens (Human), UniProt P23743).
Give bare numbers, in nM.

# compound, target.entity, unit.abbreviation, IC50
rows = [
    ("CC[C@H]1CN(C(C)c2ccc(F)cc2F)[C@H](CC)CN1c1cc(=O)n(C)c2cn(CC#N)nc12 (single isomer, unassigned) [Compound A132b]", "DGKα (Homo sapiens (Human), UniProt P23743)", "nM", 330),
    ("CC[C@H]1CN(C(C)c2ccc(F)cc2C#N)[C@H](CC)CN1c1cc(=O)n(C)c2cn(CC#N)nc12 (single isomer, unassigned) [Compound A224a]", "DGKα (Homo sapiens (Human), UniProt P23743)", "nM", 1090),
    ("CC[C@@H]1CN(c2nc(=O)[nH]c3cn(CC#N)nc23)[C@@H](C)CN1C(C)c1ccc2nccnc2c1 (single isomer, unassigned) [Compound A183a]", "DGKα (Homo sapiens (Human), UniProt P23743)", "nM", 7740),
    ("CC#CCn1cc2c(n1)c(N1C[C@@H](CC)N(C(C)c3ccc4c(c3)OC(F)(F)O4)C[C@@H]1C)cc(=O)n2C (single isomer, unassigned) [Compound A392a]", "DGKα (Homo sapiens (Human), UniProt P23743)", "nM", 1320),
    ("Cc1nc2cc(C(C)N3C[C@H](C)N(c4cc(=O)n(C)c5cn(CC#N)nc45)C[C@H]3C)ccc2nc1O (stereo partly drawn) [Compound A316]", "DGKα (Homo sapiens (Human), UniProt P23743)", "nM", 67000),
]

Can you give me IC50 for all of these, one by one?
1. CC[C@H]1CN(C(C)c2ccc(C(N)=O)cc2)[C@H](CC)CN1c1cc(=O)n(C)c2cn(CC#N)nc12 (single isomer, unassigned) [Compound A120a]
2. CC[C@H]1CN(C(C)c2cc3cnccc3cn2)[C@H](CC)CN1c1cc(=O)n(C)c2cn(CC#N)nc12 (single isomer, unassigned) [Compound A368b]
3. Cc1cnc2ccc([C@H](C)N3C[C@H](C)N(c4nc(=O)n(C)c5cn(CC#N)nc45)C[C@H]3C)cc2n1 [Compound A319]

Response:
1. 176
2. 91
3. 49800

Request: Supply reported IC50 belonging to this compound: CC[C@H]1CN(C(C)c2ccc3nccnc3c2)[C@H](CC)CN1c1cc(=O)n(C)c2cn(CC#N)nc12 (single isomer, unassigned) [Compound A28b]
Response: 983

* * *

Molecular target: DGKα (Homo sapiens (Human), UniProt P23743)
Sequence (P23743 whole entry): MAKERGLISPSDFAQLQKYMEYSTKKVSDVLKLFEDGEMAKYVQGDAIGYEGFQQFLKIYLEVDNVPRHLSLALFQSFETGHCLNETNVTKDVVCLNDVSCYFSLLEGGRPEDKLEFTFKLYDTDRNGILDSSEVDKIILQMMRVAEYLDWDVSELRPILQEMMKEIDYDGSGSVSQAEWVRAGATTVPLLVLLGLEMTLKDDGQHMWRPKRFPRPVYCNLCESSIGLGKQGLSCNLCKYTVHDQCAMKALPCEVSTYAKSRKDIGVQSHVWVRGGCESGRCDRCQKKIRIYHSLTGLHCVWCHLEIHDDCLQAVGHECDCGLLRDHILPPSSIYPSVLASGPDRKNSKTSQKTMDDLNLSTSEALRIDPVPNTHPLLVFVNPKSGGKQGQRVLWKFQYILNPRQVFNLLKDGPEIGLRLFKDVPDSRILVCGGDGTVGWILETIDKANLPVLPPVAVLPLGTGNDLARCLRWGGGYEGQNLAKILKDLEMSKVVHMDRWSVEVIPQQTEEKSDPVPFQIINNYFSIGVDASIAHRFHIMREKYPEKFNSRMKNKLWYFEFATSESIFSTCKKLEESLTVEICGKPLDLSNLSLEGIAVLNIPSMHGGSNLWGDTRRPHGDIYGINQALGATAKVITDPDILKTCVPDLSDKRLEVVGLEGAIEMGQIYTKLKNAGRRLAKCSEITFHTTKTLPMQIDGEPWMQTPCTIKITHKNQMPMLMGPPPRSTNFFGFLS
pIC50: −log10 of the molar value.
reported.property: pIC50

Below, 2 molecules whose answers are already recorded.
# molecule, target.entity, pIC50
measured = [
    ("CC[C@H]1CN([C@H](C)c2ccc3nccnc3c2)[C@H](CC)CN1c1cc(=O)n(C(C)C)c2cn(CC#N)nc12 (single isomer, unassigned) [Compound A190b]", "DGKα (Homo sapiens (Human), UniProt P23743)", "< 5.00"),
    ("CC#CCn1cc2c(n1)c(N1C[C@@H](C)N(C(C)c3ccc4ncc(C(F)F)nc4c3)C[C@@H]1C)cc(=O)n2C (stereo partly drawn)", "DGKα (Homo sapiens (Human), UniProt P23743)", 6.21),
]

Can you give me pIC50 for all of these, one by one?
1. CC[C@H]1CN(C(C)c2ccc(C3CC3)cc2OC)[C@H](CC)CN1c1cc(=O)n(C)c2cn(CC#N)nc12 (single isomer, unassigned) [Compound A199b]
2. CC(c1ccc2ncc(Cl)nc2c1)N1C[C@H](C)N(c2cc(=O)n(C)c3cn(CC#N)nc23)C[C@H]1C (stereo partly drawn)
3. CC[C@H]1CN([C@H](C)c2nc(Cl)cn2CC)[C@H](CC)CN1c1cc(=O)n(C)c2cn(CC#N)nc12 (single isomer, unassigned) [Compound A191b]

Response:
["< 5.00", 4.59, "< 5.00"]

Request: Find pIC50 for CC[C@H]1CN(C(C)c2ccc(C3CC3)cc2OC)[C@H](CC)CN1c1cc(=O)n(C)c2cn(CC#N)nc12 (single isomer, unassigned) [Compound A199a] on DGKα (Homo sapiens (Human), UniProt P23743) and write it down.
Response: < 5.00

* * *

Target: DGKζ (Homo sapiens (Human), UniProt Q13574)
Sequence (Q13574 other isoform, or with tags, fused parts or gaps): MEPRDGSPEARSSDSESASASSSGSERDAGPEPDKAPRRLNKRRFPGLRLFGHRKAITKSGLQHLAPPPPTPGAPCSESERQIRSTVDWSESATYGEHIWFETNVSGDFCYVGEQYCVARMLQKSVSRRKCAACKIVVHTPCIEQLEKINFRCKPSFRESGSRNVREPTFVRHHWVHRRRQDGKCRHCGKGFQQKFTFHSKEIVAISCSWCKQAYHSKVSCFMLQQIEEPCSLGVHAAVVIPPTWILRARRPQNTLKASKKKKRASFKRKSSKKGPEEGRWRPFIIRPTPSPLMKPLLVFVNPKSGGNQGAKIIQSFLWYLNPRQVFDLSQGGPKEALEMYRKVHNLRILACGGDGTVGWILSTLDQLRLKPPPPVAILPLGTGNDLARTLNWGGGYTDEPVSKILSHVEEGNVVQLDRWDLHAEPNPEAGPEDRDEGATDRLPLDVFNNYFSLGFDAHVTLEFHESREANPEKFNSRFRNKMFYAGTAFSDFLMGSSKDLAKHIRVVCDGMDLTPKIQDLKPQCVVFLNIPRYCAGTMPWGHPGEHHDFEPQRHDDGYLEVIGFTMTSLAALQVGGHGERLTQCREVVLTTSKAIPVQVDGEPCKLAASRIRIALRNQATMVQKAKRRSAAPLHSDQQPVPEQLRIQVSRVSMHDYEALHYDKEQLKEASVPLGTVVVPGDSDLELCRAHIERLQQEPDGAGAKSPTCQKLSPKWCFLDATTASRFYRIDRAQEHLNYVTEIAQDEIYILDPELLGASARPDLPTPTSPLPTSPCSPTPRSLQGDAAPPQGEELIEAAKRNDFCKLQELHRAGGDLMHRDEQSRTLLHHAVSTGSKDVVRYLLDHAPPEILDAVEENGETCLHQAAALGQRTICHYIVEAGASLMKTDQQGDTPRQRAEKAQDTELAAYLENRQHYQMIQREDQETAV
Experiment: Biochemical DGK IC50 assay, DGKζ ADP-Glo assay
Settings: 0.5 nM enzyme, 140 μM ATP, 80 μM DAG; read-out: DGKζ ADP-Glo assay IC50
Could you please report measured log10 of IC50 for the items listed next?
// units: nM (pre-log); metric: IC50; scale: log10

Below, 3 compounds whose answers are already recorded.
# compound, log10 of IC50
measured = [
    ("CC[C@@H]1CN(c2c(F)c(=O)[nH]c3cn(CC#N)nc23)[C@@H](C)CN1C(C)c1ccc2nccnc2c1 (single isomer, unassigned) [Compound A194a]", 2.19),
    ("CC[C@H]1CN(C(C)c2ccc(C(C)(C)C#N)cc2F)[C@H](CC)CN1c1cc(=O)n(C)c2cn(CC#N)nc12 (stereo partly shown)", 2.31),
    ("CC(c1ccc2c(c1)C(F)(F)CCO2)N1C[C@H](C)N(c2cc(=O)n(C)c3cn(CC#N)nc23)C[C@H]1C (stereo partly shown)", 1.66),
]

Can you give me log10 of IC50 for all of these, one by one?
1. CC(c1ccc2nccnc2c1)N1C[C@H](CC#N)N(c2cc(=O)n(C)c3cn(CC#N)nc23)C[C@H]1C (stereo partly shown)
2. CC(c1ccc(F)cc1OC(F)F)N1C[C@H](C)N(c2cc(=O)n(C)c3cn(CC#N)nc23)C[C@H]1C (stereo partly shown)

Response:
2.58
2.45

Can you give me log10 of IC50 for all of these, one by one?
1. CC[C@H]1CN(C(C)c2cccc(=O)n2CC)[C@H](CC)CN1c1cc(=O)n(C)c2cn(CC#N)nc12 (stereo partly shown)
2. Cc1cnc2ccc([C@H](C)N3C[C@H](C)N(c4nc(=O)n(C)c5cn(CC#N)nc45)C[C@H]3C)cc2n1

Response:
1: 3.61; 2: 1.36

* * *

Biological target: DGKζ (Homo sapiens (Human), UniProt Q13574)
Experiment: Biochemical DGK IC50 assay, DGKζ ADP-Glo assay
Details: 0.5 nM enzyme, 140 μM ATP, 80 μM DAG; read-out: DGKζ ADP-Glo assay IC50
reported.property: IC50 (nM)
Answers are plain numbers, in nM.

# compound, reading
records = [
    ("CC[C@H]1CN(C(C)c2ccc(C(C)(C)C#N)cc2)[C@H](CC)CN1c1cc(=O)n(C)c2cn(CC#N)nc12 (stereo partly drawn) [Compound A338]", 160),
]

Can you give me IC50 for all of these, one by one?
1. CC[C@H]1CN(C(C)c2nc3cccnc3n2CC)[C@H](CC)CN1c1cc(=O)n(C)c2cn(CC#N)nc12 (single isomer, unassigned) [Compound A185b]
2. CC[C@H]1CN(C(C)c2c(F)cc(F)cc2OC)[C@H](CC)CN1c1cc(=O)n(C)c2cn(CC#N)nc12 (single isomer, unassigned) [Compound A201a]

Response:
[34, 43]

Request: Supply reported IC50 belonging to this compound: CC[C@H]1CN(C(C)c2c(OC)cc(F)cc2OC)[C@H](CC)CN1c1cc(=O)n(C)c2cn(CC#N)nc12 (stereo partly drawn) [Compound A94]
Response: 98

* * *

Could you please report measured pIC50 for the items listed next?
Molecular target: DGKα (Homo sapiens (Human), UniProt P23743)
Answers are plain numbers, as −log10 of the molar value.

Below, 2 compounds whose answers are already recorded.
# compound, reading
data = [
    ("CC[C@H]1CN(C(C)c2ccc(C(F)(F)F)cc2OC)[C@H](CC)CN1c1cc(=O)n(C)c2cn(CC#N)nc12 (stereo partly drawn) [Compound A157]", 5.52),
    ("CC[C@H]1CN(C(C)c2ncc(OC(F)(F)F)cc2F)[C@H](CC)CN1c1cc(=O)n(C)c2cn(CC#N)nc12 (single isomer, unassigned) [Compound A362a]", 6.04),
]

Please examine the following record next.
Request: Supply reported pIC50 belonging to this compound: CC[C@H]1CN(C(C)c2cc3cnccc3cn2)[C@H](CC)CN1c1cc(=O)n(C)c2cn(CC#N)nc12 (single isomer, unassigned) [Compound A368a]
Response: 5.31

* * *

Target: DGKζ (Homo sapiens (Human), UniProt Q13574)
Assay: Biochemical DGK IC50 assay, DGKζ ADP-Glo assay
Conditions: 0.5 nM enzyme, 140 μM ATP, 80 μM DAG; read-out: DGKζ ADP-Glo assay IC50
reported.property: pIC50
Numbers only, as −log10 of the molar value.

Below, 5 compounds whose answers are already recorded.
# compound, reading
measured = [
    ("CCC1CN(c2c(Br)c(=O)n(C)c3cn(CC#N)nc23)CCN1[C@@H](C)c1ccc2nccnc2c1 (stereo partly drawn) [Compound A179a]", 5.10),
    ("CC[C@H]1CN(C(C)c2ccncc2OC)[C@H](CC)CN1c1cc(=O)n(C)c2cn(CC#N)nc12 (stereo partly drawn)", 6.27),
    ("CC(c1ccc2ncc(C(C)(F)F)nc2c1)N1C[C@H](C)N(c2cc(=O)n(C)c3cn(CC#N)nc23)C[C@H]1C (stereo partly drawn)", 6.62),
    ("CC(c1ccc2ncc(CO)nc2c1)N1C[C@H](C)N(c2cc(=O)n(C)c3cn(CC#N)nc23)C[C@H]1C (single isomer, unassigned) [Compound A309b]", 6.43),
    ("CC[C@H]1CN(C(C)c2ccc(C)cc2F)[C@H](CC)CN1c1cc(=O)n(C)c2cn(CC#N)nc12 (stereo partly drawn)", 6.61),
]

Please examine the following record next.
Request: Supply reported pIC50 belonging to this compound: CC[C@@H]1CN(c2nc(=O)[nH]c3cn(CC#N)nc23)[C@@H](C)CN1C(C)c1ccc2nccnc2c1 (single isomer, unassigned) [Compound A183b]
Response: 5.68
